So I've got a bunch of compounds here, and I need their inhibition values.
Organism: Oryctolagus cuniculus
Experiment: Inhibition of post-acid activity of rabbit 20S proteasome at 50 uM at pH 8 after 15 mins
Hi! Could you send only the number? It should be in %, unit omitted.

What value of measured inhibition is listed for Cc1ccccc1C(=O)Nc1ccc(S(=O)(=O)NCc2ccccc2)cc1 ?
54

What value of measured inhibition is listed for Cc1ccc(-c2nnc(Nc3ccccc3)c3ccccc23)cc1S(=O)(=O)NCC1CCCO1 (stereo not given) ?
52

What value of measured inhibition is listed for CC(C)(C)c1ccc(/C=C/C(=O)N2CCN(c3ccc([N+](=O)[O-])cc3)CC2)cc1 ?
52

What value of measured inhibition is listed for CC(C)(C)c1ccc(OCC(=O)N2CCN(c3ccc([N+](=O)[O-])cc3)CC2)c(Br)c1 ?
49

What value of measured inhibition is listed for Cc1ccc(-c2nnc(Nc3cccc(O)c3)c3ccccc23)cc1S(=O)(=O)NC(C)(C)C ?
29
